# measured target: T1, cyno LAIR-1-ECD (cynomolgus monkey)
# T1 construct: Recombinant, expressed in mammalian cells; also called extracellular region of cyno LAIR-1
# T1 chain: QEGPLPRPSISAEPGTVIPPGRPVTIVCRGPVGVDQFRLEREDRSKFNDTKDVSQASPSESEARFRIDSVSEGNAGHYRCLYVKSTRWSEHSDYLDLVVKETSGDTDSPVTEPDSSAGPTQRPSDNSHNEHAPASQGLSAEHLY
# protocol summary: SPR (Biacore); antibody captured by anti-Fc; LAIR-1-ECD injected;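 note: Anti-Fc immobilized on a CM5 chip, LAIR-1-ECD (human or cynomolgus) injected at 3.3-10 nM and 25 °C, kinetics fitted by simultaneous global fit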
observable: Kd (nM)
Numbers only, in nM.

{"columns": ["binder", "observable", "scale unit", "numeric value"],
 "data": [
  ["anti-LAIR-1 antibody 47H1 (antibody, V domains shown, Monoclonal antibody from immunized mice (hybridoma)) VH: EVQLVETGGGLVQPKGSLKLSCAASGFTFNINAMNWVRQAPGKGLEWVARIRTKNNNYATFYADSVKDRFTISRDDSQSMLYLQMNNLKTDDTAMYYCVRDRAGFFAYWGQGTPVTVSA VL: DIQMTQSPASQSASLGESVTITCLASQTIGTWLGWYRQKPGKSPQLLIYAATSLADGVPSRFSGSGSGTKFSFKISSLQAEDFVIYYCQQLYSTPLTFGSGTKLEIK", "Kd", "nM", 2.5]
]}

Quick request: Kd for each listed item, please.
1. anti-LAIR-1 antibody 47A1 (antibody, V domains shown, Monoclonal antibody from immunized mice (hybridoma)) VH: EVQLVESGGGLVQPKGSLKLSCAASGFTFNTYAIHWVRQAPGKGLEWVARIRSKSTNYATYYADSVKDRFTISRDDSQSMVFLQMNNLKTEDTAMYYCVRENWYYYALDYWGQGTSVTVSS VL: DIQMTQSPASLSASVGETVTITCRASGNIHNYLTWYQQKQGKSPQVLVYNAKTLEDGVPSRFSGSESGTQYSLKINSLQPEDFGSYYCQHFWSTPFTFGSGTKLEIK
2. anti-LAIR-1 antibody 108D10 (antibody, V domains shown, Monoclonal antibody from immunized mice (hybridoma)) VH: EVQLVETGGGLVQPKGSLKLSCAASGFTFNINAMNWVRQAPGKGLEWVARIRTKNNNYATYYADSVKDRFTISRDDSESMLYLQMNNLKTEDTAMYYCVRDRYGGAMAYWGQGTSVTVSS VL: DIQMTQSSSSFSVSLGDRVTITCKASEDIYNRLAWYQQKPGNVPRLLISSATSLETGVPSRFSGSGSGKDYTLSLTSLQSEDVATYYCQQYWTIPYTFGGGTKLEIK

Response:
18
21
